Source listed as paper PMC6100582.

# MBEC per record follows
- System: Streptococcus pneumonia MFBF 10373
- experimental-protocol: Minimum biofilm eradication assay
- Format: cell-based, Streptococcus pneumoniae
Answer in µg/mL, number only, no unit symbol.

// solved cases for MBEC follow
# molecule, MBEC [µg/mL]
rows = [
    ("COc1cc(NC(C)CCCN)c2ncccc2c1 (stereo not shown) [PQ, primaquine, reference compound]", 70),
    ("COc1cc(NC(C)CCCNC(=O)/C=C/C(=O)Nc2ccc(Cl)cc2)c2ncccc2c1 (stereo not shown) [Compound 4d]", 50),
    ("COc1cc(NC(C)CCCNC(=O)/C=C/C(=O)Nc2cccc(Cl)c2)c2ncccc2c1 (stereo not shown) [Compound 4c]", 100),
]

GET /values?readout=MBEC&item= COc1cc(NC(C)CCCNC(=O)/C=C/C(=O)Nc2cccc(C(F)(F)F)c2)c2ncccc2c1 (stereo not shown) [Compound 4e]
50

GET /values?readout=MBEC&item= COc1cc(NC(C)CCCNC(=O)/C=C/C(=O)Nc2ccc(C(F)(F)F)cc2)c2ncccc2c1 (stereo not shown) [Compound 4f]
50

GET /values?readout=MBEC&item= COc1cc(NC(C)CCCNC(=O)/C=C/C(=O)Nc2ccc(F)cc2)c2ncccc2c1 (stereo not shown) [Compound 4b]
25

GET /values?readout=MBEC&item= COc1cc(NC(C)CCCNC(=O)/C=C/C(=O)Nc2cccc(F)c2)c2ncccc2c1 (stereo not shown) [Compound 4a]
12.5
